Each record here notes measured pIC50.
- SUBJECT_OF_TEST: ATM (Homo sapiens (Human))
- Sequence (Q13315 whole entry, looked up): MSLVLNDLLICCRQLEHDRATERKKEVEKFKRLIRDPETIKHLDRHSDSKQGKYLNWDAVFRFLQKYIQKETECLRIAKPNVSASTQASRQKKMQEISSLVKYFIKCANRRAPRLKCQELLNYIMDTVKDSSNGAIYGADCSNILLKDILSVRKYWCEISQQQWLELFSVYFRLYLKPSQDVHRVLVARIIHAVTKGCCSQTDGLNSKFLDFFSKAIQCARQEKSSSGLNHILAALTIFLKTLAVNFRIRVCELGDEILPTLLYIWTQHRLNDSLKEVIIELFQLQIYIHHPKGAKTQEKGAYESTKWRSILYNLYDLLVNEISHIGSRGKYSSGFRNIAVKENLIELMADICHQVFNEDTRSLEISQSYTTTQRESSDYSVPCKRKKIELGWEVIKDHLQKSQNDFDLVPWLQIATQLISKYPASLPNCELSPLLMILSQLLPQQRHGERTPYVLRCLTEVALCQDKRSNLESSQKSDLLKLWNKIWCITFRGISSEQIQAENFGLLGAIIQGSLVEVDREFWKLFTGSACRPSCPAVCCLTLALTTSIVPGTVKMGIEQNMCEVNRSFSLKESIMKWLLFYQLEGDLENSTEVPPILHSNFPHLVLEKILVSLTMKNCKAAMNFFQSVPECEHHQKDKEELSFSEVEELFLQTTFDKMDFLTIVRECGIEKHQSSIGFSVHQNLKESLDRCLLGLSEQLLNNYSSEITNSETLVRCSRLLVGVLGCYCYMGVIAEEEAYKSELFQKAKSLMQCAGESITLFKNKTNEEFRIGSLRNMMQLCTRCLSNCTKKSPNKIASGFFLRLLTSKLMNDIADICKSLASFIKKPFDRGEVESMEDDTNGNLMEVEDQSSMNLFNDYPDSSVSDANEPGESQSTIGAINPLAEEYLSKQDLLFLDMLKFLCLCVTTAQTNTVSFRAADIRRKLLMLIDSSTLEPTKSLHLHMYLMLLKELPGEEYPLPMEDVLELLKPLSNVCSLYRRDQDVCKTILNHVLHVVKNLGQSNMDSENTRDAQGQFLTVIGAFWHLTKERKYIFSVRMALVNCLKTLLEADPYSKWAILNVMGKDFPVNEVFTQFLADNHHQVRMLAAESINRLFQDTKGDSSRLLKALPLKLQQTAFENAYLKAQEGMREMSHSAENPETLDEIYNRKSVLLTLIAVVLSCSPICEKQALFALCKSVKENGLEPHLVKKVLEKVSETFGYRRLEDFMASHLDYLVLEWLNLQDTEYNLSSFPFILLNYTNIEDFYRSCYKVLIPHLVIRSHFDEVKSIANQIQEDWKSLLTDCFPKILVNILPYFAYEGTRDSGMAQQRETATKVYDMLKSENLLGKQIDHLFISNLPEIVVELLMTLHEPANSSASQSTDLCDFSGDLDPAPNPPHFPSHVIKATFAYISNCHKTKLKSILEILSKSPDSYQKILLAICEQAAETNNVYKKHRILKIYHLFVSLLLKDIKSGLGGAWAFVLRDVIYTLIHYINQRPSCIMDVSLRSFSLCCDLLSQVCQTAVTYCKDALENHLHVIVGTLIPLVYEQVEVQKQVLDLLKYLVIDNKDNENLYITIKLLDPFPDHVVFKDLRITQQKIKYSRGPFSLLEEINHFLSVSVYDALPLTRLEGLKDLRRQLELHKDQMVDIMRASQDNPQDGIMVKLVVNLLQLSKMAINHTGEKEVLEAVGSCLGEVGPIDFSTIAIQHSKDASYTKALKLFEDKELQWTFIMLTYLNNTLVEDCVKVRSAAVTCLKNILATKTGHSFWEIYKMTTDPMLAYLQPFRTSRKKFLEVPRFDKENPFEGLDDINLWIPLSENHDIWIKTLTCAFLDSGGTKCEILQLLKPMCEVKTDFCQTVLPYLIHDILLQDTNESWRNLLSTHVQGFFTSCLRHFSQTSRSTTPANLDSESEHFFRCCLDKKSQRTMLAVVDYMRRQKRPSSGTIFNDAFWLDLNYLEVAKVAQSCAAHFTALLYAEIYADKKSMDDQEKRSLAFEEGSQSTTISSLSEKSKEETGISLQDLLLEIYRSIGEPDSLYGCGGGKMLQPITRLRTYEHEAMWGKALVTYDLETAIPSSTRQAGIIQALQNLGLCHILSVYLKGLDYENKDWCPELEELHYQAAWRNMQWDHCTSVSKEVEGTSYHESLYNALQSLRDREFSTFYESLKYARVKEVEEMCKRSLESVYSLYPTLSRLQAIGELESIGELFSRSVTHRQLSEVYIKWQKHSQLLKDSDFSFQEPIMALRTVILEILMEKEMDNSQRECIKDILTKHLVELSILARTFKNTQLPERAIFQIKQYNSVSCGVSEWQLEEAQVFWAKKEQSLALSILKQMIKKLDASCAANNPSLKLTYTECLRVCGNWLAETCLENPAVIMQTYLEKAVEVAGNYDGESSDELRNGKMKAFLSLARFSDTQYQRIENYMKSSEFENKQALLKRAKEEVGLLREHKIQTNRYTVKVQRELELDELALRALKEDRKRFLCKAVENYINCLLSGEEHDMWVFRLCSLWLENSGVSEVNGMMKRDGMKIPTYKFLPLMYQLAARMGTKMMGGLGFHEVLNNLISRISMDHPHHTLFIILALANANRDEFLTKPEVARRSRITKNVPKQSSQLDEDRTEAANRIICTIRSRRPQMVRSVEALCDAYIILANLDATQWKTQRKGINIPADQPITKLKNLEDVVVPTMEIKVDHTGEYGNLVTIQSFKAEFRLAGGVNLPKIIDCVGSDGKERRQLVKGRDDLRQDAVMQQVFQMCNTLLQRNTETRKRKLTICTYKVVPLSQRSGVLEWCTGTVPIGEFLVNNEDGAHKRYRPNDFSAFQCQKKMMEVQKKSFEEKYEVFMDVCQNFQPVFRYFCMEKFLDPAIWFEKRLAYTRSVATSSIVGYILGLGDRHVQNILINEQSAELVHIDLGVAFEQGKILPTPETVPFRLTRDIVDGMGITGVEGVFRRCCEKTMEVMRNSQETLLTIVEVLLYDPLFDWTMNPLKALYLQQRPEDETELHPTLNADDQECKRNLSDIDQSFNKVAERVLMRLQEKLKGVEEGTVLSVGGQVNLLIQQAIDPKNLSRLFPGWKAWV
- EXPERIMENT_SUMMARY: biochemical
- Type: biochemical
- CONDITIONS_USED: read-out: ATM IC50
pIC50: −log10 of the molar value.
EXPERIMENTAL_ENDPOINT: pIC50

{"COMPOUND": "CO[C@@H]1CCN(CCO[C@@H](C)c2ccc(-c3ccc4nnc5c(c4c3)n(C(C)C)c(=O)n5C)cn2)C1", "EXPERIMENTAL_ENDPOINT": "pIC50", "OBSERVED_MEASUREMENT": 7.72}
{"COMPOUND": "CC(C)n1c(=O)n(C)c2nnc3cc(F)c(-c4ccc(COCCN5CCC(F)CC5)nc4)cc3c21 [Ref compd 1, reference compound]", "EXPERIMENTAL_ENDPOINT": "pIC50", "OBSERVED_MEASUREMENT": 7.60}
{"COMPOUND": "CC(C)n1c(=O)n(C)c2nnc3ccc(-c4ccc(COCC5CCN(C)CC5)nc4)cc3c21", "EXPERIMENTAL_ENDPOINT": "pIC50", "OBSERVED_MEASUREMENT": 6.74}
{"COMPOUND": "CO[C@H]1C[C@@H](n2c(=O)n(C)c3nnc4ccc(-c5ccc(COCCN6CC7CC7C6)nc5)cc4c32)C1 (some centres unmarked)", "EXPERIMENTAL_ENDPOINT": "pIC50", "OBSERVED_MEASUREMENT": 7.60}
{"COMPOUND": "COC1CCCN(CCOCc2ccc(-c3ccc4nnc5c(c4c3)n(C(C)C)c(=O)n5C)cn2)C1 (centres unmarked)", "EXPERIMENTAL_ENDPOINT": "pIC50", "OBSERVED_MEASUREMENT": 7.30}
{"COMPOUND": "C[C@@H](OCCN1CCC2(CCC2)CC1)c1ccc(-c2ccc3nnc4c(c3c2)n(C2CCOCC2)c(=O)n4C)cn1", "EXPERIMENTAL_ENDPOINT": "pIC50", "OBSERVED_MEASUREMENT": 8.96}
{"COMPOUND": "CO[C@H]1C[C@@H](n2c(=O)n(C)c3nnc4ccc(-c5ccc(COCCN6CCC(F)CC6)nc5)cc4c32)C1", "EXPERIMENTAL_ENDPOINT": "pIC50", "OBSERVED_MEASUREMENT": 7.55}
{"COMPOUND": "C[C@@H](OCCN1CC2(COC2)C1)c1ccc(-c2ccc3nnc4c(c3c2)n(C2CCOCC2)c(=O)n4C)cn1", "EXPERIMENTAL_ENDPOINT": "pIC50", "OBSERVED_MEASUREMENT": 7.89}
{"COMPOUND": "COC1CCN(CCO[C@H](C)c2ccc(-c3cc4c(cc3F)nnc3c4n(C(C)C)c(=O)n3C)cn2)CC1", "EXPERIMENTAL_ENDPOINT": "pIC50", "OBSERVED_MEASUREMENT": 8.33}
{"COMPOUND": "CC(C)n1c(=O)n(C)c2nnc3ccc(-c4ccc(COCCCN(C)C)nc4)cc3c21", "EXPERIMENTAL_ENDPOINT": "pIC50", "OBSERVED_MEASUREMENT": 7.01}
{"COMPOUND": "COC1CCN(CCOCc2ccc(-c3ccc4nnc5c(c4c3)n(C(C)C)c(=O)n5C)cn2)CC1 [Example 27]", "EXPERIMENTAL_ENDPOINT": "pIC50", "OBSERVED_MEASUREMENT": 7.04}
{"COMPOUND": "CC(C)n1c(=O)n(C)c2nnc3ccc(-c4ccc(C(C)(C)OCCN5CC6CC6C5)nc4)cc3c21 (centres unmarked)", "EXPERIMENTAL_ENDPOINT": "pIC50", "OBSERVED_MEASUREMENT": 7.14}
{"COMPOUND": "CC(C)n1c(=O)n(C)c2nnc3ccc(-c4ccc(COCCN5CC6CCC5C6)nc4)cc3c21 (centres unmarked)", "EXPERIMENTAL_ENDPOINT": "pIC50", "OBSERVED_MEASUREMENT": 7.14}
{"COMPOUND": "C[C@H]1CCN(CCO[C@H](C)c2ccc(-c3ccc4nnc5c(c4c3)n(C3CCOCC3)c(=O)n5C)cn2)C1", "EXPERIMENTAL_ENDPOINT": "pIC50", "OBSERVED_MEASUREMENT": 7.70}
{"COMPOUND": "CO[C@@H]1CCN(CCO[C@H](C)c2ccc(-c3ccc4nnc5c(c4c3)n(C(C)C)c(=O)n5C)cn2)C1", "EXPERIMENTAL_ENDPOINT": "pIC50", "OBSERVED_MEASUREMENT": 8.38}
{"COMPOUND": "CC(C)n1c(=O)n(C)c2nnc3ccc(-c4ccc([C@H](OCCN5CCCC5)C(F)(F)F)nc4)cc3c21", "EXPERIMENTAL_ENDPOINT": "pIC50", "OBSERVED_MEASUREMENT": 8.55}
{"COMPOUND": "CC(C)n1c(=O)n(C)c2nnc3ccc(-c4ccc(COCCN5CC[C@@H](F)C5)nc4)cc3c21", "EXPERIMENTAL_ENDPOINT": "pIC50", "OBSERVED_MEASUREMENT": 7.09}
{"COMPOUND": "CC(C)n1c(=O)n(C)c2nnc3ccc(-c4ccc(COC5CC(N(C)C)C5)nc4)cc3c21 (centres unmarked)", "EXPERIMENTAL_ENDPOINT": "pIC50", "OBSERVED_MEASUREMENT": 7.17}
{"COMPOUND": "COC1CCN(CCOCc2ccc(-c3ccc4nnc5c(c4c3)n(C(C)C)c(=O)n5C)cn2)CC1 [Example 44]", "EXPERIMENTAL_ENDPOINT": "pIC50", "OBSERVED_MEASUREMENT": 7.92}
{"COMPOUND": "CO[C@H]1C[C@H](n2c(=O)n(C)c3nnc4ccc(-c5ccc(COCCN6CCC(F)CC6)nc5)cc4c32)C1", "EXPERIMENTAL_ENDPOINT": "pIC50", "OBSERVED_MEASUREMENT": 7.32}
{"COMPOUND": "CC(C)n1c(=O)n(C)c2nnc3ccc(-c4ccc([C@@H](C)OCCN5CC[C@@H](S(C)(=O)=O)C5)nc4)cc3c21", "EXPERIMENTAL_ENDPOINT": "pIC50", "OBSERVED_MEASUREMENT": 7.43}
{"COMPOUND": "C[C@@H](OCCN1CCC(C2COC2)CC1)c1ccc(-c2ccc3nnc4c(c3c2)n(C2CCOCC2)c(=O)n4C)cn1", "EXPERIMENTAL_ENDPOINT": "pIC50", "OBSERVED_MEASUREMENT": 8.34}
{"COMPOUND": "C[C@@H](OCCN1CCC(C)(C)C1)c1ccc(-c2cc3c(cc2F)nnc2c3n(C3CCOCC3)c(=O)n2C)cn1", "EXPERIMENTAL_ENDPOINT": "pIC50", "OBSERVED_MEASUREMENT": 8.07}
{"COMPOUND": "CC(C)n1c(=O)n(C)c2nnc3ccc(-c4ccc([C@@H](C)OCCN5CCC6(CC6)C5)nc4)cc3c21", "EXPERIMENTAL_ENDPOINT": "pIC50", "OBSERVED_MEASUREMENT": 8.38}
{"COMPOUND": "CO[C@H]1C[C@H](n2c(=O)n(C)c3nnc4ccc(-c5ccc([C@@H](C)OCCN6CCCC6)nc5)cc4c32)C1", "EXPERIMENTAL_ENDPOINT": "pIC50", "OBSERVED_MEASUREMENT": 8.15}
{"COMPOUND": "CC(C)n1c(=O)n(C)c2nnc3cc(F)c(-c4ccc([C@@H](C)OCCN5CCC(OC(F)(F)F)CC5)nc4)cc3c21", "EXPERIMENTAL_ENDPOINT": "pIC50", "OBSERVED_MEASUREMENT": 8.54}
{"COMPOUND": "C[C@@H](OCCN1CCC(C)(C#N)C1)c1ccc(-c2ccc3nnc4c(c3c2)n(C2CCOCC2)c(=O)n4C)cn1 (some centres unmarked)", "EXPERIMENTAL_ENDPOINT": "pIC50", "OBSERVED_MEASUREMENT": 7.59}
{"COMPOUND": "CCC(OCCN1CCCC1)c1ccc(-c2ccc3nnc4c(c3c2)n(C(C)C)c(=O)n4C)cn1 (centres unmarked)", "EXPERIMENTAL_ENDPOINT": "pIC50", "OBSERVED_MEASUREMENT": 7.24}
{"COMPOUND": "CC(C)n1c(=O)n(C)c2nnc3ccc(-c4ccc(COCCN5CC[C@H](F)C5)nc4)cc3c21", "EXPERIMENTAL_ENDPOINT": "pIC50", "OBSERVED_MEASUREMENT": 7.33}

Cited source for all entries: patent US20240207263A1
